Molecular target: UniProt:Q86WV6
Test: Agonist activity at STING in digitonin-permeabilized human THP1-Dual cells expressing NF-kappaB-SEAP and IRF-Lucia luciferase reporter assessed as increase in IRF-luciferase activation incubated for 24 hrs by QUANTI-Luc assay
fulfilled if EC50 is below 5 nM. not fulfilled if not; exact matches included in not fulfilled.

Solved entries:
CCc1nc(C)oc1C(=O)Nc1nc2cc(C(N)=O)cc(OCCCO)c2n1C/C=C/Cn1c(NC(=O)c2cc(C)nn2CC)nc2cc(C(N)=O)cc(OC)c21 fulfilled
CCn1nc(C)cc1C(=O)Nc1nc2cc(C(N)=O)cnc2n1C/C=C/Cn1c(NC(=O)c2cc(C)nn2CC)nc2cc(C(N)=O)cc(OCCCO)c21 not fulfilled
CCn1nc(C)cc1C(=O)Nc1nc2cc(C(N)=O)cc(OC)c2n1C/C=C/Cn1c(NC(=O)c2cc(C)nn2CC)nc2cc(C(N)=O)cc(OCCCC(=O)O)c21 not fulfilled
CCn1nc(C)cc1C(=O)Nc1nc2cc(C(N)=O)cc(OC)c2n1C/C=C/Cn1c(NC(=O)c2cc(C)nn2CC)nc2cc(C(N)=O)cc(OCCCN)c21 not fulfilled

// next entry
*Q* # TODO verify EC50 < 5 nM strictly for this molecule: `CCc1nc(C)sc1C(=O)Nc1nc2cc(C(N)=O)cc(OC)c2n1C/C=C/Cn1c(NC(=O)c2sc(C)nc2CC)nc2cc(C(N)=O)cc(OCCCO)c21`
*A* not fulfilled

* * *

Would you mind telling me the reported EC50 of each entry?
Target: Stimulator of interferon genes protein (Homo sapiens, UniProt Q86WV6)
Sequence (Q86WV6 whole entry): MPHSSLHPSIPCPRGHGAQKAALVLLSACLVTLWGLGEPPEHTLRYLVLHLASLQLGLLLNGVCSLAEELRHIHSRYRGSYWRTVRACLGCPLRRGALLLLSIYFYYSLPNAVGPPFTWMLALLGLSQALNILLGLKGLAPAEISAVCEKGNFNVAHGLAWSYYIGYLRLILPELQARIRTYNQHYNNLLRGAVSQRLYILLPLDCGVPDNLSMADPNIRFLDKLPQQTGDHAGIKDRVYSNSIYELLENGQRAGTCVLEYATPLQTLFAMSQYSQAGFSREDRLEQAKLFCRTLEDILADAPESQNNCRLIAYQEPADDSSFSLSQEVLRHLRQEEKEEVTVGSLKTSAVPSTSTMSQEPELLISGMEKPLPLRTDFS
Experiment: Agonist activity at STING in digitonin-permeabilized human THP1-Dual cells expressing NF-kappaB-SEAP and IRF-Lucia luciferase reporter assessed as increase in IRF-luciferase activation incubated for 24 hrs by QUANTI-Luc assay

Here is how some compounds turned out for EC50.
CCc1nc(C)oc1C(=O)Nc1nc2cc(C(N)=O)cc(OCCCO)c2n1C/C=C/Cn1/c(=N/C(=O)c2cc(C)nn2CC)sc2cc(C(N)=O)cc(OC)c21 20 nM
CCc1nc(C)oc1C(=O)Nc1nc2cc(C(N)=O)cc(OC)c2n1C/C=C/Cn1c(NC(=O)c2cc(C)nn2CC)nc2cc(C(N)=O)cc(OCCCO)c21 9 nM
CCc1ncoc1C(=O)/N=c1\sc2cc(C(N)=O)cc(OC)c2n1C/C=C/Cn1c(NC(=O)c2ocnc2CC)nc2cc(C(N)=O)cc(OCCCO)c21 > 100000 nM

Field: EC50. Fill in for each record below.
1. CCn1nc(C)cc1C(=O)Nc1nc2cc(C(N)=O)cnc2n1C/C=C/Cn1c(NC(=O)c2oc(C)nc2C)nc2cc(C(N)=O)cc(OCCCO)c21
2. CCc1nc(C)oc1C(=O)/N=c1\sc2cc(C(N)=O)cc(OC)c2n1C/C=C/Cn1c(NC(=O)c2oc(C)nc2CC)nc2cc(C(N)=O)cc(OCCCO)c21
3. CCc1nc(C)oc1C(=O)/N=c1\sc2cc(C(N)=O)cc(OCCCO)c2n1C/C=C/Cn1c(NC(=O)c2oc(C)nc2CC)nc2cc(C(N)=O)cnc21

*A*
1. 3200 nM
2. 60 nM
3. 150 nM

* * *

Biological target: UniProt Q86WV6
Assay: Agonist activity at STING in digitonin-permeabilized human THP1-Dual cells expressing NF-kappaB-SEAP and IRF-Lucia luciferase reporter assessed as increase in IRF-luciferase activation incubated for 24 hrs by QUANTI-Luc assay
test readout: pEC50
Give bare numbers, as −log10 of the molar value.

CCc1nc(C)oc1C(=O)Nc1nc2cc(C(N)=O)cc(OC)c2n1C/C=C/Cn1c(NC(=O)c2oc(C)nc2CC)nc2cc(C(N)=O)cc(OCCCO)c21 9.00
CCc1nc(C)oc1C(=O)Nc1nc2cc(C(N)=O)cc(OCCCO)c2n1C/C=C/Cn1c(NC(=O)c2cc(C)nn2CC)nc2cc(C(N)=O)cnc21 8.40
CCn1nc(C)cc1C(=O)Nc1nc2cc(C(N)=O)cc(OC)c2n1C/C=C/Cn1c(NC(=O)c2cc(C)nn2CC)nc2cc(C(N)=O)cc(OCCCO)c21 9.00
CCc1nn(C)cc1C(=O)Nc1nc2cc(C(N)=O)cc(OC)c2n1C/C=C/Cn1c(NC(=O)c2cn(C)nc2CC)nc2cc(C(N)=O)cc(OCCCO)c21 5.30
CCc1nc(C)oc1C(=O)/N=c1\sc2cc(C(N)=O)cnc2n1C/C=C/Cn1c(NC(=O)c2oc(C)nc2CC)nc2cc(C(N)=O)cc(OCCCO)c21 7.05
CCc1nc(C)sc1C(=O)Nc1nc2cc(C(N)=O)cc(OCCCO)c2n1C/C=C/Cn1c(NC(=O)c2cc(C)nn2CC)nc2cc(C(N)=O)cc(OC)c21 7.70

Field: pEC50. Fill in for each record below.
1. CCc1nc(C)oc1C(=O)Nc1nc2cc(C(N)=O)cnc2n1C/C=C/Cn1c(NC(=O)c2oc(C)nc2CC)nc2cc(C(N)=O)cc(OCCCO)c21
2. CCc1nn(C)cc1C(=O)Nc1nc2cc(C(N)=O)cc(OCCCO)c2n1C/C=C/Cn1c(NC(=O)c2cc(C)nn2CC)nc2cc(C(N)=O)cc(OC)c21

*A*
1. 8.15
2. 7.70
